system: E. coli BW25113 ΔtolC growth inhibition, OD615; test: growth inhibitors of E. coli tolC mutant, dose response, strain BW25113 ΔtolC::kan (AID 617);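 note: growth read after 20 h at 37 °C with compound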
Here, each record is paired with measured IC50 data.
READOUT: IC50

INSERT INTO results (compound, target_or_test_system, readout, experimental_result) VALUES
  ('CCCCCc1cc(O)c2c(C)cc(=O)oc2c1', 'E. coli BW25113 ΔtolC growth inhibition, OD615', 'IC50', '2.16 µM'),
  ('CCN(CCNC(=O)C1CCN(Cc2nc(-c3cccc(Cl)c3)oc2C)CC1)c1ccccc1', 'E. coli BW25113 ΔtolC growth inhibition, OD615', 'IC50', '8.04 µM'),
  ('CCOC(=O)c1c(NC(=O)CN2CCCCC2)sc2c1CCN(C(=O)OCC)C2', 'E. coli BW25113 ΔtolC growth inhibition, OD615', 'IC50', '10.7 µM'),
  ('O=C(c1cccc(COc2ccc(Cl)cc2Cl)c1)N1CCN(c2ccccn2)CC1', 'E. coli BW25113 ΔtolC growth inhibition, OD615', 'IC50', '3.82 µM'),
  ('COCc1nnc(NC(=O)c2ccc(S(=O)(=O)N3CCCCCC3)cc2)o1', 'E. coli BW25113 ΔtolC growth inhibition, OD615', 'IC50', '7.62 µM'),
  ('Cc1ccccc1C1=NCC(=O)N(CC(=O)NCc2ccco2)c2sc3c(c21)CCCC3', 'E. coli BW25113 ΔtolC growth inhibition, OD615', 'IC50', '28.6 µM'),
  ('O=C(C1CCCCC1)N1CCC(c2nc3c(nnn3Cc3c(F)cccc3Cl)c(=O)[nH]2)CC1', 'E. coli BW25113 ΔtolC growth inhibition, OD615', 'IC50', '18.2 µM'),
  ('C/C(CCc1oc2ccccc2c1-c1ccc(C)o1)=N/O', 'E. coli BW25113 ΔtolC growth inhibition, OD615', 'IC50', '14.2 µM'),
  ('Cn1c(Oc2ccccc2NCc2cc(Br)ccc2O)cc(=O)n(C)c1=O', 'E. coli BW25113 ΔtolC growth inhibition, OD615', 'IC50', '4.08 µM'),
  ('CCCCc1cc(O)c(CCCC)c(O)c1', 'E. coli BW25113 ΔtolC growth inhibition, OD615', 'IC50', '10.9 µM'),
  ('Fc1ccc(Br)cc1C1C=C(c2ccc(Br)s2)Nc2ncnn21 (configuration not stated)', 'E. coli BW25113 ΔtolC growth inhibition, OD615', 'IC50', '5.22 µM'),
  ('CC1=C(C(=O)OC(C)C)C(c2c[nH]c3ccccc23)n2ncnc2N1 (configuration not stated)', 'E. coli BW25113 ΔtolC growth inhibition, OD615', 'IC50', '6.11 µM'),
  ('N#CC1=C(SCC(=O)c2cc3ccccc3oc2=O)NC(=O)C(C#N)C12CCCC2 (configuration not stated)', 'E. coli BW25113 ΔtolC growth inhibition, OD615', 'IC50', '12.7 µM'),
  ('CCOC(=O)c1c(NC(=O)C(F)(OC)C(F)(F)F)sc(C(=O)N2CCCCC2)c1C (configuration not stated)', 'E. coli BW25113 ΔtolC growth inhibition, OD615', 'IC50', '24.6 µM'),
  ('c1ccc(CN2CCN(c3nc(-c4ccccc4)nc(-n4ccnc4)n3)CC2)cc1', 'E. coli BW25113 ΔtolC growth inhibition, OD615', 'IC50', '6.13 µM'),
  ('Cc1ccc(NC(=O)c2nnn(-c3cc(C)cc(C)c3)c2N)cc1', 'E. coli BW25113 ΔtolC growth inhibition, OD615', 'IC50', '21.9 µM'),
  ('O/N=C(\c1ccc(Cl)cc1)c1cc2ccccc2o1', 'E. coli BW25113 ΔtolC growth inhibition, OD615', 'IC50', '5.7 µM'),
  ('CCn1c(C(=O)NCCCc2ccccc2)cc2sccc21', 'E. coli BW25113 ΔtolC growth inhibition, OD615', 'IC50', '8.52 µM'),
  ('CCCn1c(CN(Cc2ccccc2)Cc2ccccc2)nc2c1c(=O)n(C)c(=O)n2C', 'E. coli BW25113 ΔtolC growth inhibition, OD615', 'IC50', '7.19 µM'),
  ('CN(C1CCCCC1)S(=O)(=O)c1ccc(NC(=O)c2ccc(Br)o2)cc1', 'E. coli BW25113 ΔtolC growth inhibition, OD615', 'IC50', '10.6 µM'),
  ('COc1ccc(S(=O)(=O)N(Cc2cccs2)C2CCCC2)cc1', 'E. coli BW25113 ΔtolC growth inhibition, OD615', 'IC50', '8.13 µM'),
  ('COc1ccc(S(=O)(=O)Nc2ccc(S(=O)(=O)N3CCCCC3)cc2)cc1', 'E. coli BW25113 ΔtolC growth inhibition, OD615', 'IC50', '15 µM');
